Reference source: ChEMBL document CHEMBL6153054

system: HepG2; experiment: Antiproliferative activity against human HepG2 cells assessed as reduction in cell growth after 72 hrs by MTT assay; assay type: functional, cell-based; details: HepG2, 72 h
Metric: IC50 (µM)

• C[C@H]1CO[C@H]2C3=C(C(=O)C=CC3=O)[C@@H]3OC(=O)[C@H]4CC[C@@H]5[C@H]1CC[C@@]52[C@@H]43 = 55
• C[C@@]12CCCC(=O)[C@@H]1[C@H](O)C1=C(C2)C(=O)C=CC1=O = 48.5
• C[C@@]12CCC[C@](O)(c3ccccn3)[C@@H]1CC1=C(C2)C(=O)C=CC1=O = 45.3

====

species on record: Homo sapiens; assay: Inhibition of TrxR (unknown origin) at 5 uM by […]-reagent based assay relative to control
Metric: inhibition (%)

[1] C=C1CCC[C@@]2(C)CC3=C(C[C@@H]12)C(=O)C=CC3=O
[2] C=C1C(=O)O[C@H]2[C@H]1CCC(C)=C1CC[C@@](C)(O)[C@@H]12 [MICHELIOLIDE]
[3] C[C@@]12CCC[C@](O)(c3ccc(C#N)cc3)[C@@H]1CC1=C(C2)C(=O)C=CC1=O
Parameters: sort_by = inhibition; order = desc; input = items above. Put the labels in the requested order and list them out. 3, 2, 1

[1] C[C@@]12CCC[C@](O)(c3ccccc3)[C@@H]1CC1=C(C2)C(=O)C=CC1=O
[2] C[C@@]12CCCC(=O)[C@@H]1[C@H](O)C1=C(C2)C(=O)C=CC1=O
// returns 1 or 2 , whichever has the lower inhibition Field: selected label. Fill in the label of the entry you choose. 1
